Target: OX2 receptor (Homo sapiens, UniProt O43614)
Sequence (O43614 whole entry): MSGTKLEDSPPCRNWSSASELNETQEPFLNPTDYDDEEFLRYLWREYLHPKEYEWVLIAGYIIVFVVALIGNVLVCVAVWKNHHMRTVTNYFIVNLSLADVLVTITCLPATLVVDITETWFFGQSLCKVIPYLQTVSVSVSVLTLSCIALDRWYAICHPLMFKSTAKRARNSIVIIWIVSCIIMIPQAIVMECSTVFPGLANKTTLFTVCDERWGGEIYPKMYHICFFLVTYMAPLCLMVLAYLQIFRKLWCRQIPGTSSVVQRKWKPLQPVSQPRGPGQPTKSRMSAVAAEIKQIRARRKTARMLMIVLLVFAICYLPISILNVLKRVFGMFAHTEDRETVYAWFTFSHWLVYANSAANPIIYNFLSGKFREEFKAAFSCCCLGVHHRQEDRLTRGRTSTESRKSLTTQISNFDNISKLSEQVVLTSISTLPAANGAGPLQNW
measurement_kind: Ki

INSERT INTO results (substance_smiles, reported_result) VALUES
  ('COc1ccc(CNC(=O)c2cc(-c3cc(C)cnc3F)cnc2-c2ccccn2)cc1Cl', '1.3 nM'),
  ('COc1ccc(CNC(=O)c2cc(-c3cncc(C#N)c3)cnc2-c2ccccn2)nc1OC', '12 nM');

Answer with Ki of "COc1ccc(CNC(=O)c2cc(-c3cncc(Cl)c3)cnc2-c2ccccn2)nc1OC" measured for OX2 receptor (Homo sapiens, UniProt O43614).
0.54 nM
